target: T1, cynomolgus CD8 (captured on the Octet biosensor) (cynomolgus); assay: Octet (BLI); cynomolgus CD8 captured, dipped into multiple concentrations of the one-arm mAb
T1 construct: Construct not described; also called cyno CD8; cyno CD8a
T1 sequence (P30433 other isoform, or with tags, fused parts or gaps): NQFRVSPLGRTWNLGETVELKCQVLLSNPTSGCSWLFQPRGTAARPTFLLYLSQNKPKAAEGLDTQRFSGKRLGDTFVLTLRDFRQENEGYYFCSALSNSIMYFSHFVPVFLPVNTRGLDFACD
Observable: pKd
Give bare numbers, as −log10 of the molar value.

XENP26238 (antibody, V domains shown, also called OKT8_H2.161_L1.103 one-arm mAb) VH: QVQLVQSGAEVKKPGASVKVSCKASGFNIKDTYIHWVRQAPGKGLEWMGRIDPDNDETLYASKFQGRVTITADTSINTAYMELSRLRSDDTAVYYCGRGYGKYVFDHWGQGTTVTVSS VL: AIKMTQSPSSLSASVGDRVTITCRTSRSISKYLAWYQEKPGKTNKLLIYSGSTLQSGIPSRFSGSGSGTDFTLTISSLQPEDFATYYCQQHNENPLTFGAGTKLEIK : 6.97

Now look at this one.
Query: pKd; subject: XENP26233 (antibody, V domains shown, also called OKT8_H2.156_L1.103 one-arm mAb) VH: QVQLVQSGAEVKKPGASVKVSCKASGFNIKDTYIHWVRQAPGKGLEWMGRIDPDNGETLYASKFQGRVTITADTSINTAYMELSRLRSDDTAVYYCGRGWGYYVFDHWGQGTTVTVSS VL: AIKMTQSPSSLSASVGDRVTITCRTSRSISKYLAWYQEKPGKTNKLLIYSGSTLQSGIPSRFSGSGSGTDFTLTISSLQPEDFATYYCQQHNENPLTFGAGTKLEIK
7.18
